# tested.target: SLC35G3 (Homo sapiens)
# Sequence (Q8N808 whole entry): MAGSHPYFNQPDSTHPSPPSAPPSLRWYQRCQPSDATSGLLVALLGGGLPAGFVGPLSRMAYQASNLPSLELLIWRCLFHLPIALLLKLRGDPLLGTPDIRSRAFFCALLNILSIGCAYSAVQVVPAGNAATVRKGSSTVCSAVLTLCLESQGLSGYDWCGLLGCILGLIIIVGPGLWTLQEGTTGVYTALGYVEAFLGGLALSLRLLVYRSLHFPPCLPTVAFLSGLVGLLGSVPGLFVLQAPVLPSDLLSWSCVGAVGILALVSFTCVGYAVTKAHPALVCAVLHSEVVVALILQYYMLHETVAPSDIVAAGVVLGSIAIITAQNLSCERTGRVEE
# protocol: Uptake ratio screen, SLC35G3-overexpressing HEK293 over empty vector cells
# Format: cell-based
# Parameters: by amplifying the entire gene-of-interest within the HEK293 genome via a long-range PCR
# experimental.conditions: 2.5 μM substrate, 2 min, HEK293
Examples of compounds with documented Uptake data for SLC35G3, mean value (fold-increase over empty vector control) follow.
measurement.kind: Uptake data for SLC35G3, mean value (fold-increase over empty vector control)

compound	experimental.result
C[C@@H](O)[C@H]1C(=O)N2C(C(=O)O)=C(S[C@@H]3CN[C@H](C(=O)N(C)C)C3)[C@H](C)[C@H]12	1.27
COCCn1c2c([n+](Cc3cnccn3)c1C)C(=O)c1ccccc1C2=O	1.11
CC[C@@H](CO)NCCN[C@@H](CC)CO	0.99
CCCCN1CCCCC1C(=O)Nc1c(C)cccc1C (stereo not shown)	2.44
